Type: physicochemical
Parameters: key: 1 = fibrils present; 0 non-fibrillar structures
Conditions: TEM; 1 = fibrils present, 0 = non-fibrillar
What Fibril was measured for each of the following?
Format: numeric value only, no unit, no commentary.

Provide measured Fibril value, entry: "HHHHKIKIKIKIYYYY"
0

For the substance "KIKIQIAMWQ" , give its measured Fibril value.
1

Item "KLKQLL" : provide Fibril
0

For the substance "QCKFKQFF" , give its measured Fibril value.
1

Let me know recorded Fibril for "RGDKIKIQI" , thanks.
1

// Input: "KIKIQINMAQ" . Output its Fibril only.
1

# return recorded Fibril for entry "NMWQKIKIQI"
1

Hello, please tell me recorded Fibril for this one: "NMWQKIKQII"
0

Quickly give me recorded Fibril for "EIEIQINMWQ"
0

Specify measured Fibril for "CEIEIQINM" .
1

Using known records, supply Fibril for "KIKIQII"
1
